# target or system: B1R receptor of the rat (CHO K1 cells stably transfected with the B1R gene of the rat) (Rattus norvegicus)
# Construct: expressed in transfected cells; host or cells: CHO K1 cells (Chinese hamster ovary), stably transfected
# experiment notes: Functional study on the bradykinin receptor 1 (B1R), Ca2+ fluorescence (Fluo-4) FLIPR/Novostar assay, rB1R cells
# Type: cell-based
# applied conditions: CHO-K1, 10 μM, read-out: % inhibition (rat B1R) at 10 μM

# molecule, units text, inhibition at 10 µM
rows = [
    ("CN(C(=O)c1ccc2c(c1)[C@H](NS(=O)(=O)c1ccccc1Cl)CC2)C1CCN(c2ccncc2)CC1", "%", 101),
    ("COc1cc(N2CCC(N(C)C(=O)c3ccc4c(c3)[C@H](NC(=O)c3ccccc3Cl)CC4)CC2)ccn1", "%", 99),
    ("Cc1cc(N2CCC(N(C)C(=O)c3ccc4c(c3)[C@H](N(C)C(=O)c3ccc(F)cc3Cl)CC4)CC2)nc(C)n1", "%", 104),
    ("Cc1cc(N2CC(N(C)C(=O)c3ccc4c(c3)[C@H](N3Cc5cccc(Cl)c5C3=O)CC4)C2)ccn1", "%", 111),
    ("CN(C(=O)c1ccc2c(c1)[C@H](NC(=O)c1ccccc1Cl)CC2)C1CCN(c2ccncc2)CC1", "%", 102),
    ("Cc1cc(CN2CCC(N(C)C(=O)c3ccc4c(c3)[C@H](NC(=O)c3ccccc3Cl)CC4)CC2)on1", "%", 55),
    ("CN(C(=O)c1ccc2c(c1)[C@H](NC(=O)C1(c3ccccc3Cl)CC1)CC2)C1CCN(c2ccncc2)CC1", "%", 105),
    ("Cc1cc(N2CCC(N(C)C(=O)c3cc4c(cc3F)[C@H](NC(=O)c3ccccc3Cl)CC4)CC2)nc(C)n1", "%", 96),
    ("CN(C(=O)c1ccc2c(c1)OCC[C@H]2N1Cc2cccc(Cl)c2C1=O)C1CCN(c2ccncc2)CC1", "%", 56),
    ("CN(C(=O)c1ccc2c(c1)[C@H](NC(=O)C(C)(C)C)CC2)C1CCN(c2ccncc2)CC1", "%", 103),
    ("CN(C(=O)c1ccc2c(c1)[C@H](NC(=O)C1CCOc3ccccc31)CC2)C1CCN(c2ccncc2)CC1 (some centres unmarked)", "%", 103),
    ("Cc1cc(N2CCC(N(C)C(=O)c3ccc4c(c3)[C@H](NC(=O)c3ccccc3C(F)(F)F)CC4)CC2)nc(C)n1", "%", 99),
    ("CN(C)c1cc(C2CCC(N(C)C(=O)c3ccc4c(c3)[C@H](NC(=O)c3ccccc3Cl)CC4)CC2)ccn1 (some centres unmarked)", "%", 105),
    ("CN(C(=O)c1ccc2c(c1)[C@H](N1Cc3cccc(Cl)c3C1=O)CC2)C1CCN(c2ccncc2)CC1", "%", 100),
]

====

# target or system: human B1R receptor (CHO K1 cells stably transfected with the human B1R gene) (Homo sapiens, UniProt P46663)
# Construct: expressed in transfected cells; host or cells: CHO K1 cells (Chinese hamster ovary), stably transfected
# Sequence (P46663 whole entry): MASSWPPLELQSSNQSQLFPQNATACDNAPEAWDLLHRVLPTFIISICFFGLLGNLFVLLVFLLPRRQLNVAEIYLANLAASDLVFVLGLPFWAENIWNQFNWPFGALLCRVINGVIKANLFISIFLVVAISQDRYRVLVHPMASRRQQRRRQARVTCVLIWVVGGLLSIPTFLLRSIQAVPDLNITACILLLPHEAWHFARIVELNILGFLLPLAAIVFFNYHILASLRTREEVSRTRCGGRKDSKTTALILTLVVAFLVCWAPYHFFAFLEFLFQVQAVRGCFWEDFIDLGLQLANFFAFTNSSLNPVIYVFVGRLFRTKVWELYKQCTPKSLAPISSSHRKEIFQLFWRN
# experiment notes: Functional study on the bradykinin receptor 1 (B1R), Ca2+ fluorescence (Fluo-4) FLIPR/Novostar assay, hB1R cells
# Assay type: cell-based
# applied conditions: CHO-K1, read-out: % inhibition (human B1R) at 10 μM

# smi, units text, inhibition at 10 µM
data = [
    ("CN1CCN([C@@H]2CCC[C@H](N(C)C(=O)c3ccc4c(c3)[C@H](NS(=O)(=O)c3ccccc3Cl)CC4)C2)CC1", "%", 75),
    ("CCN(C(=O)C1CCCC1)[C@@H]1CCc2ccc(C(=O)N(C)C3CCN(c4cc(C)nc(C)n4)CC3)cc21", "%", 98),
    ("Cc1cc(N2CCC(CN(C)C(=O)c3ccc4c(c3)CC[C@H]4N3Cc4cccc(Cl)c4C3=O)CC2)ccn1", "%", 98),
    ("CCN(C(=O)c1ccc2c(c1)[C@H](NC(=O)c1ccccc1Cl)CC2)C1CCN(c2ncnc3nc[nH]c23)CC1", "%", 90),
    ("CC(C)N(C(=O)c1ccc2c(c1)[C@H](NC(=O)c1ccccc1Cl)CC2)C1CCN(c2ccncc2)CC1", "%", 100),
    ("CN(C(=O)c1ccc2c(c1)[C@H](NC(=O)C(C)(C)C)CC2)C1CCN(c2ccncc2)CC1", "%", 98),
    ("Cc1cc(N2CCC(N(C)C(=O)c3ccc4c(c3)[C@H](N(C(=O)c3ccc(F)cc3Cl)C(C)C)CC4)CC2)nc(C)n1", "%", 94),
]

====

# target or system: human B1R receptor (CHO K1 cells stably transfected with the human B1R gene) (Homo sapiens)
# Construct: expressed in transfected cells; host or cells: CHO K1 cells (Chinese hamster ovary), stably transfected
# experiment notes: Functional study on the bradykinin receptor 1 (B1R), Ca2+ fluorescence (Fluo-4) FLIPR/Novostar assay, hB1R cells
# Type: cell-based
# applied conditions: CHO-K1, read-out: % inhibition (human B1R) at 10 μM
Listing: inhibition at 10 µM of selected molecules

# smi, units text, inhibition at 10 µM
rows = [
    ("CN(C)c1nccc(N2CCC(N(C)C(=O)c3ccc4c(c3)[C@H](NC(=O)C3CCCC3)CC4)CC2)n1", "%", 96),
    ("CN1CCN([C@@H]2CCC[C@H](N(C)C(=O)c3ccc4c(c3)[C@H](NC(=O)c3ccccc3Cl)CC4)C2)CC1", "%", 27),
    ("Cc1cc(N2CCC(N(C)C(=O)c3ccc4c(c3)[C@H](NC(=O)CCC3CCCC3)CC4)CC2)ccn1", "%", 100),
    ("Cc1cc(N2CCC(N(C)C(=O)c3ccc4c(c3)[C@H](N(C)C(=O)c3ccccc3C)CC4)CC2)nc(C)n1", "%", 100),
    ("CN(C)c1nccc(N2CCC(N(C)C(=O)c3ccc4c(c3)[C@H](N(C)C(=O)CCC3CCCC3)CC4)CC2)n1", "%", 99),
    ("CN(C(=O)c1ccc2c(c1)[C@H](NC(=O)c1ccccc1Cl)CC2)C1CCN(Cc2ccnc(N3CCCC3)c2)CC1", "%", 11),
    ("CN(C(=O)c1ccc2c(c1)[C@@H](NC(=O)c1ccccc1Cl)CC2)C1CCN(c2ccncc2)CC1", "%", 99),
]

====

Reported inhibition at 10 µM values are given for each entry in this list.
# target or system: B1R receptor of the rat (CHO K1 cells stably transfected with the B1R gene of the rat) (Rattus norvegicus, UniProt P97583)
# Construct: expressed in transfected cells; host or cells: CHO K1 cells (Chinese hamster ovary), stably transfected
# Sequence (P97583 whole entry): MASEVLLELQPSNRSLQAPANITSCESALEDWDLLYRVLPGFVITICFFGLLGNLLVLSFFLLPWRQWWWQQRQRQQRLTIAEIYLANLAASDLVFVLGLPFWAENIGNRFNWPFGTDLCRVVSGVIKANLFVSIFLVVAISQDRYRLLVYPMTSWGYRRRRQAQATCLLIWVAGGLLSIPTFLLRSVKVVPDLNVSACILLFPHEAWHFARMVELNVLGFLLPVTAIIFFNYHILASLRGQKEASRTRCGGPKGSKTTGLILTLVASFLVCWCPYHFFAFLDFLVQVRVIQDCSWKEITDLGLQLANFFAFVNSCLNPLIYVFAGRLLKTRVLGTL
# experiment notes: Functional study on the bradykinin receptor 1 (B1R), Ca2+ fluorescence (Fluo-4) FLIPR/Novostar assay, rB1R cells
# Type: cell-based
# applied conditions: CHO-K1, 10 μM, read-out: % Inhibition (r-B1R) at 10 μM
# Source text: The agonistic or antagonistic action of substances can be quantified on the bradykinin receptor 1 (B1R) of the species human and rat using ectopically expressing cell lines (CHO K1 cells) and with the aid of a Ca^2+-sensitive dye (Fluo-4) using a fluorescent imaging plate reader (FLIPR). […] The agonistic or antagonistic action of substances can be determined on the bradykinin receptor 1 (B1R) of the species human and rat using the following assay. […]

# molecule, inhibition at 10 µM
records = [
    ("COCC(=O)NC1CCc2ccc(C(=O)N(C)C3CCN(c4cc(C)nc(C)c4)CC3)cc21 (stereo not shown) [CC_H-300]", "103%"),
    ("Cc1cc(N2CCC(N(C)C(=O)c3ccc4c(c3)C(NC(=O)Nc3cccc(Cl)c3)CC4)CC2)cc(C)n1 (stereo not shown) [CC_H-305]", "109%"),
    ("CN(C(=O)NC1CCc2ccc(C(=O)N(C)C3CCN(c4ccncc4)CC3)cc21)c1ccccc1Cl (stereo not shown) [CC_H-44]", "104%"),
    ("Cc1cc(N2CCC(N(C)C(=O)c3ccc4c(c3)C(NC(=O)Nc3ccccc3Cl)CC4)CC2)cc(C)n1 (stereo not shown) [CC_H-304]", "98%"),
    ("Cc1cc(N2CCC(N(C)C(=O)c3ccc4c(c3)C(N(C)C(=O)Nc3ccc(Cl)cc3Cl)CC4)CC2)cc(C)n1 (stereo not shown) [CC_H-342]", "107%"),
    ("COCC(=O)NC1CC(C)(C)c2ccc(C(=O)N(C)C3CCN(c4ccncc4)CC3)cc21 (stereo not shown) [CC_H-228]", "107%"),
    ("Cc1cc(N2CCC(N(C)C(=O)c3ccc4c(c3)C(NS(=O)(=O)Cc3ccccc3F)CC4)CC2)cc(C)n1 (stereo not shown) [CC_H-323]", "110%"),
]

====

Recorded measurements of inhibition at 10 µM, one per entry
# target or system: B1R receptor of the rat (CHO K1 cells stably transfected with the B1R gene of the rat) (Rattus norvegicus, UniProt P97583)
# Construct: expressed in transfected cells; host or cells: CHO K1 cells (Chinese hamster ovary), stably transfected
# experiment notes: Functional study on the bradykinin receptor 1 (B1R), Ca2+ fluorescence (Fluo-4) FLIPR/Novostar assay, rB1R cells
# Format: cell-based
# applied conditions: CHO-K1, 10 μM, read-out: % Inhibition (r-B1R) at 10 μM

# compound, inhibition at 10 µM (%)
data = [
    ("CN(C(=O)c1ccc2c(c1)CCC2NC(=O)c1cccc(Cl)c1Cl)C1CCN(c2ccncc2)CC1 (stereo not drawn)", 98),
    ("CN(C(=O)c1ccc2c(c1)C(NS(=O)(=O)C1CCCCC1)CCC2)C1CCN(c2ccncc2)CC1 (stereo not drawn)", 110),
    ("Cc1cc(N2CCC(N(C)C(=O)c3ccc4c(c3)C(N(C)C(=O)CC(C)C)CC4)CC2)cc(C)n1 (stereo not drawn)", 110),
    ("CN(C(=O)c1ccc2c(c1)C(N(C)C(=O)c1sccc1Cl)CC2)C1CCN(c2ccncc2)CC1 (stereo not drawn)", 104),
    ("CN(C(=O)c1ccc2c(c1)C(NC(=O)c1cc(C(F)(F)F)ccc1Cl)CC2(C)C)C1CCN(c2ccncc2)CC1 (stereo not drawn)", 109),
    ("CN(C(=O)c1ccc2c(c1)C(NC(=O)c1cccc(Cl)c1Cl)CC2)C1CCN(c2ccc3cnccc3c2)CC1 (stereo not drawn)", 98),
    ("CN(C(=O)c1ccc2c(c1)C(NC(=O)c1cnccc1C(F)(F)F)CCO2)C1CCN(c2ccncc2)CC1 (stereo not drawn)", 104),
    ("CN(C(=O)c1ccc2c(c1)C(N(C)C(=O)Nc1cccc(Cl)c1)CC2)C1CCN(c2ccncc2)CC1 (stereo not drawn)", 109),
    ("Cc1ccc(F)c(C(=O)NC2CCc3ccc(C(=O)N(C)C4CCN(c5ccncc5)CC4)cc32)c1Cl (stereo not drawn)", 111),
    ("CN(C(=O)c1ccc2c(c1)C(NS(=O)(=O)c1c(Cl)cccc1C(F)(F)F)CCC2)C1CCN(c2ccncc2)CC1 (stereo not drawn)", 104),
    ("CN(C(=O)NC1CCc2ccc(C(=O)N(C)C3CCN(c4ccc5cnccc5c4)CC3)cc21)c1ccccc1Cl (stereo not drawn)", 91),
    ("Cc1cccc(Cl)c1S(=O)(=O)NC1CCOc2ccc(C(=O)N(C)C3CCN(c4ccncc4)CC3)cc21 (stereo not drawn)", 103),
    ("CN(C(=O)c1ccc2c(c1)C(NC(=O)Nc1c(Cl)cccc1Cl)CCC2)C1CCN(c2ccncc2)CC1 (stereo not drawn)", 107),
    ("CN(C(=O)c1ccc2c(c1)C(NC(=O)Nc1cccc(Cl)c1Cl)CC2(C)C)C1CCN(c2ccncc2)CC1 (stereo not drawn)", 65),
    ("Cc1ccc(NC(=O)NC2CCOc3ccc(C(=O)N(C)C4CCN(c5ccncc5)CC4)cc32)cc1Cl (stereo not drawn)", 69),
]
